# Tested on: Human Leukemia Cell K562
# assay-comment: Inhibitory effects on Human Leukemia Cell K562 (MTT)
# Assay type: cell-based
# condition-parameters: Homo sapiens, K562 cells, 72 h~120 h
pIC50: −log10 of the molar value.
Entries annotated with measured pIC50

Example compounds with recorded pIC50:
Cc1ccc(NC(=O)c2ccc(CN3C[C@@H](C)N[C@@H](C)C3)cc2)cc1NC(=O)/C=C/c1cccnc1 = > 8.30
Cc1ccc(C(=O)Nc2ccc(C)c(NC(=O)/C=C/c3cccnc3)c2)cc1 = > 8.57
Cc1cn(-c2cc(NC(=O)c3ccc(C)c(NC(=O)/C=C/c4cncnc4)c3)cc(C(F)(F)F)c2)cn1 = > 9.00

Which pIC50 reading was recorded for the compound Cc1ccc(NC(=O)c2ccc(C)c(C(F)(F)F)c2)cc1NC(=O)/C=C/c1cccnc1 ?
> 9.00

Give the measured pIC50 of Cc1ccc(C(=O)Nc2ccc(C)c(C(F)(F)F)c2)cc1NC(=O)/C=C/c1cncnc1 .
> 9.00

Given the compound Cc1ccc(NC(=O)c2ccc(C)c(NC(=O)/C=C/c3cccnc3)c2)cc1 , what is its reported pIC50?
7.70 to 8.70

* * *

# Test system: Human Leukemia Cell K562
# assay-comment: Inhibitory effects on Human Leukemia Cell K562 (MTT)
# Assay type: cell-based
# condition-parameters: Homo sapiens, K562 cells, 72 h~120 h
Item-by-item account of IC50

So what's the measured IC50 for this one? Cc1ccc(C(=O)Nc2c(C)cccc2Cl)cc1NC(=O)/C=C/c1cncnc1 [compound 82]
< 20 nM

Entry CCN1CCN(Cc2ccc(C(=O)Nc3ccc(C)c(NC(=O)/C=C/c4cccnc4)c3)cc2)CC1 [compound 13] : reported IC50 = ?
2 nM

// query IC50 value for entry Cc1ccc(NC(=O)c2ccc(CN3CCN(C)CC3)c(C(F)(F)F)c2)cc1NC(=O)/C=C/c1cncnc1 [compound 39]
< 1 nM

Fill in: IC50 of Cc1ccc(NC(=O)c2cc(F)cc(C(F)(F)F)c2)cc1NC(=O)/C=C/c1cncnc1 [compound 33] is ___
< 1 nM

Would you kindly share the measured IC50 for Cc1ccc(NC(=O)c2ccc(CN3CCOCC3)c(C(F)(F)F)c2)cc1NC(=O)/C=C/c1cccnc1 [compound 21] ?
2 nM

Which value of IC50 has been reported for Cc1ccc(C(=O)Nc2ccc(Cl)c(C(F)(F)F)c2)cc1NC(=O)/C=C/c1cncnc1 [compound 79] in the records?
2 to 20 nM

Fill in the blank: the reported IC50 of Cc1ccc(NC(=O)Nc2ccc(F)c(Cl)c2)cc1NC(=O)/C=C/c1cccnc1 [compound 102] is ____.
10 to 20 nM

Fill in: IC50 of Cc1ccc(C(=O)Nc2c(C)cccc2Cl)cc1NC(=O)/C=C/c1cccnc1 [compound 67] is ___
2 to 20 nM

* * *

# Tested on: Human Leukemia Cell K562
# assay-comment: Inhibitory effects on Human Leukemia Cell K562 (MTT)
# Format: cell-based
# condition-parameters: Homo sapiens, K562 cells, 72 h~120 h
pIC50: −log10 of the molar value.
quantity: pIC50

// worked examples, pIC50 included
Cc1ccc(NC(=O)c2ccc(CN3CCN(C)CC3)c(Br)c2)cc1NC(=O)/C=C/c1cccnc1 = 7.70 to 8.70
Cc1ccc(NC(=O)c2cc(C(F)(F)F)cc(C(F)(F)F)c2)cc1NC(=O)/C=C/c1cccnc1 = 7.70 to 9.00
Cc1ccc(NC(=O)c2ccc(CN3CCC(N(C)C)C3)c(C(F)(F)F)c2)cc1NC(=O)/C=C/c1cncnc1 (centres unmarked) = > 9.00
Cc1ccc(C(=O)Nc2ccc(C)c(C(F)(F)F)c2)cc1NC(=O)/C=C/c1cccnc1 = > 9.00
Cc1ccc(NC(=O)c2ccc(F)cc2)cc1NC(=O)/C=C/c1cccnc1 = > 8.57
Cc1ccc(NC(=O)c2ccc(CN3CCC(N(C)C)C3)c(C(F)(F)F)c2)cc1NC(=O)/C=C/c1cccnc1 (centres unmarked) = > 9.00
Cc1ccc(NC(=O)c2ccc(CN3CC[C@@H](N(C)C)C3)c(C(F)(F)F)c2)cc1NC(=O)/C=C/c1cncnc1 = > 9.00

Fill blank: measured pIC50 of the compound Cc1ccc(NC(=O)c2ccc(CN3CCN(C)CC3)c(C(F)(F)F)c2)cc1NC(=O)/C=C/c1cccnc1 is ____.
> 9.00

* * *

In this section we review reported pIC50 values for a set of compounds.
# System: Human Leukemia Cell K562
# assay-comment: Inhibitory effects on Human Leukemia Cell K562 (MTT)
# Type: cell-based
# condition-parameters: Homo sapiens, K562 cells, 72 h~120 h
pIC50: −log10 of the molar value.

Some compounds with known pIC50 results, for comparison:
CCN1CCN(Cc2ccc(C(=O)Nc3ccc(C)c(NC(=O)/C=C/c4cccnc4)c3)cc2C(F)(F)F)CC1 = > 9.00
Cc1ccc(C(=O)Nc2ccc(Cl)c(Cl)c2)cc1NC(=O)/C=C/c1cccnc1 = 7.70 to 8.70
Cc1ccc(C(=O)Nc2ccc(N3CCN(C)CC3)c(C(F)(F)F)c2)cc1NC(=O)/C=C/c1cccnc1 = > 9.00
Cc1ccc(NC(=O)c2ccc(CN3CCN(C)CC3)cc2)cc1NC(=O)/C=C/c1cccnc1 = > 8.70
Cc1ccc(C(=O)Nc2ccc(Cl)c(C(F)(F)F)c2)cc1NC(=O)/C=C/c1cccnc1 = > 9.00
Cc1ccc(NC(=O)c2ccc(CN3CC[C@@H](N(C)C)C3)c(C(F)(F)F)c2)cc1NC(=O)/C=C/c1cccnc1 = > 9.00

Entry Cc1ccc(NC(=O)c2ccc(C)c(NC(=O)/C=C/c3cccnc3)c2)cc1F has what pIC50?
> 9.00

Value lookup for pIC50; key = Cc1cn(-c2ccc(NC(=O)c3ccc(C)c(NC(=O)/C=C/c4cccnc4)c3)cc2C(F)(F)F)cn1
> 8.70

Fill blank: measured pIC50 of the compound Cc1ccc(NC(=O)c2ccc(CN3CCCN(C)CC3)c(C(F)(F)F)c2)cc1NC(=O)/C=C/c1cccnc1 is ____.
7.70 to 8.70

// lookup pIC50 for Cc1ccc(NC(=O)c2ccc(F)cc2F)cc1NC(=O)/C=C/c1cccnc1
> 8.60

* * *

Catalogue of pIC50 readings, one per entry.
# Test system: Human Leukemia Cell K562
# assay-comment: Inhibitory effects on Human Leukemia Cell K562 (MTT)
# Type: cell-based
# condition-parameters: Homo sapiens, K562 cells, 72 h~120 h
pIC50: −log10 of the molar value.

In the examples that follow, each entry is paired with its recorded pIC50.
Cc1ccc(C(=O)Nc2ccc(Br)cc2F)cc1NC(=O)/C=C/c1cccnc1 [compound 52] = > 8.70
Cc1ccc(NC(=O)c2ccc(Cl)cc2Cl)cc1NC(=O)/C=C/c1cccnc1 [compound 4] = 7.70 to 8.70
Cc1ccc(C(=O)Nc2ccc(OC(F)(F)F)cc2)cc1NC(=O)/C=C/c1cccnc1 [compound 53] = > 9.00

Write down the reported pIC50 of CCN1CCN(c2ccc(NC(=O)c3ccc(C)c(NC(=O)/C=C/c4cccnc4)c3)cc2C(F)(F)F)CC1 [compound 74] , test system: Human Leukemia Cell K562.
7.70 to 8.70

Please tell me: pIC50 of Cc1ccc(C(=O)Nc2ccc(N3CCOCC3)c(C(F)(F)F)c2)cc1NC(=O)/C=C/c1cccnc1 [compound 69] , system Human Leukemia Cell K562?
> 9.00

Quick check: pIC50 on Human Leukemia Cell K562, item Cc1ccc(NC(=O)c2ccc(C)c(C(F)(F)F)c2)cc1NC(=O)/C=C/c1cncnc1 [compound 32] ?
> 9.00

Find the measured pIC50: item Cc1ccc(C(=O)Nc2ccc(F)c(C(F)(F)F)c2)cc1NC(=O)/C=C/c1cccnc1 [compound 60] , target or system Human Leukemia Cell K562.
> 9.00

Notebook: pull reported pIC50 for Human Leukemia Cell K562, entry Cc1ccc(NC(=O)c2cc(F)cc(C(F)(F)F)c2)cc1NC(=O)/C=C/c1cccnc1 [compound 10]
> 9.00

Which pIC50 is reported with Human Leukemia Cell K562 for this entry: Cc1ccc(NC(=O)c2ccc(C)c(NC(=O)/C=C/c3cncnc3)c2)cc1F [compound 80] ?
7.70 to 8.70

Form entry - test system: Human Leukemia Cell K562; read-out: pIC50; compound: Cc1ccc(NC(=O)c2cc(C(F)(F)F)cc(C(F)(F)F)c2)cc1NC(=O)/C=C/c1cncnc1 [compound 31]
> 9.00

GET /values?readout=pIC50&system=Human Leukemia Cell K562&item= Cc1ccc(C(=O)Nc2cc(C(F)(F)F)ccc2Cl)cc1NC(=O)/C=C/c1cccnc1 [compound 57]
7.70 to 8.70

Observed pIC50 on Human Leukemia Cell K562 for Cc1ccc(C(=O)Nc2ccc(N3CCOCC3)c(C(F)(F)F)c2)cc1NC(=O)/C=C/c1cncnc1 [compound 78] , please.
> 9.00

Identify the measured pIC50 of Cc1ccc(C(=O)Nc2ccc(F)c(Cl)c2)cc1NC(=O)/C=C/c1cncnc1 [compound 81] for Human Leukemia Cell K562.
> 7.70

Request body: readout pIC50, system Human Leukemia Cell K562, query Cc1ccc(C(=O)Nc2cccc(C(F)(F)F)c2)cc1NC(=O)/C=C/c1cccnc1 [compound 51] . Return the value.
> 8.70

# value lookup — system Human Leukemia Cell K562, readout pIC50, item Cc1ccc(C(=O)Nc2ccc(F)c(Cl)c2)cc1NC(=O)/C=C/c1cccnc1 [compound 50]
7.70 to 8.70
